Field: polymerase ribozyme fitness (log ratio). Provide a value for each of the variants that follow.
B1: TPR t1 (parent)
chain: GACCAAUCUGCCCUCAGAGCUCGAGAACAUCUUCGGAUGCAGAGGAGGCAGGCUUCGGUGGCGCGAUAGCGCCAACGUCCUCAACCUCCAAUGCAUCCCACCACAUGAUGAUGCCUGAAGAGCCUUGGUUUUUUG

variants of: B1; assay: polymerase ribozyme fitness, log enrichment relative to wild type (log ratio); higher = more active; in vitro selection for triplet polymerase activity
# respond with the number and nothing more

I would be grateful if you could share the reported polymerase ribozyme fitness (log ratio) for C70U C102U .
-2.39

I would be grateful if you could share the reported polymerase ribozyme fitness (log ratio) for C12U C94U .
-0.204

I would be grateful if you could share the reported polymerase ribozyme fitness (log ratio) for G57U G69U .
-0.378

I would be grateful if you could share the reported polymerase ribozyme fitness (log ratio) for C8A C28G G61A .
-2.22

I would be grateful if you could share the reported polymerase ribozyme fitness (log ratio) for A24G A90C .
-3.03

I would be grateful if you could share the reported polymerase ribozyme fitness (log ratio) for A43U U54A C73U G77C .
-1.92

I would be grateful if you could share the reported polymerase ribozyme fitness (log ratio) for G117U G135U .
-1.25

I would be grateful if you could share the reported polymerase ribozyme fitness (log ratio) for C20A C88A .
-2.94

I would be grateful if you could share the reported polymerase ribozyme fitness (log ratio) for G39U G52A .
-1.4

I would be grateful if you could share the reported polymerase ribozyme fitness (log ratio) for C12U G77C .
0.201

I would be grateful if you could share the reported polymerase ribozyme fitness (log ratio) for A43C G44U G113A .
-3.01

I would be grateful if you could share the reported polymerase ribozyme fitness (log ratio) for U21A C56U .
-0.334

I would be grateful if you could share the reported polymerase ribozyme fitness (log ratio) for A121C U133A .
-0.797

I would be grateful if you could share the reported polymerase ribozyme fitness (log ratio) for A6U G120A .
0.678

I would be grateful if you could share the reported polymerase ribozyme fitness (log ratio) for A6C G42C .
-1.69

I would be grateful if you could share the reported polymerase ribozyme fitness (log ratio) for U32C C80U A83U C123G U130G .
-1.77

I would be grateful if you could share the reported polymerase ribozyme fitness (log ratio) for C11G C70A A95C U112A U132C .
-1.46

I would be grateful if you could share the reported polymerase ribozyme fitness (log ratio) for U106G U125G .
-3.81

I would be grateful if you could share the reported polymerase ribozyme fitness (log ratio) for A6U G44U G52C G69A A121C .
-4.22

I would be grateful if you could share the reported polymerase ribozyme fitness (log ratio) for A37U G47U C73U C101G C114U U126G .
-7.11

I would be grateful if you could share the reported polymerase ribozyme fitness (log ratio) for A37G U78A C82G A119U .
-0.542

I would be grateful if you could share the reported polymerase ribozyme fitness (log ratio) for A37U G61C .
-1.86

I would be grateful if you could share the reported polymerase ribozyme fitness (log ratio) for G48A U96A C104U U131A .
-1.66

I would be grateful if you could share the reported polymerase ribozyme fitness (log ratio) for A2C C85U .
-3.37

I would be grateful if you could share the reported polymerase ribozyme fitness (log ratio) for A16U G45C C56G A83C .
-4.35

I would be grateful if you could share the reported polymerase ribozyme fitness (log ratio) for C73A C86U A100U C102A .
-2.87

I would be grateful if you could share the reported polymerase ribozyme fitness (log ratio) for G36U G60A G113A .
-1.62

I would be grateful if you could share the reported polymerase ribozyme fitness (log ratio) for G58U C73U .
-0.0574

I would be grateful if you could share the reported polymerase ribozyme fitness (log ratio) for U30C C97U .
-3.64

I would be grateful if you could share the reported polymerase ribozyme fitness (log ratio) for C15G C101U .
-2.56

I would be grateful if you could share the reported polymerase ribozyme fitness (log ratio) for C8G C20G G63A C124G .
-4.75

I would be grateful if you could share the reported polymerase ribozyme fitness (log ratio) for A46U C99U .
-4.49

I would be grateful if you could share the reported polymerase ribozyme fitness (log ratio) for A46U U59C G93A U130C .
-2.04

I would be grateful if you could share the reported polymerase ribozyme fitness (log ratio) for C8G G44C C64U C76A C124G .
-6.22

I would be grateful if you could share the reported polymerase ribozyme fitness (log ratio) for A16U C70G .
-2.98

I would be grateful if you could share the reported polymerase ribozyme fitness (log ratio) for U14A G61U U81A C97U .
-3.36

I would be grateful if you could share the reported polymerase ribozyme fitness (log ratio) for A5C C8G A26U .
-1.68

I would be grateful if you could share the reported polymerase ribozyme fitness (log ratio) for U7A C12G A18C G45A G48A C49A A74G C85U .
-5.35

I would be grateful if you could share the reported polymerase ribozyme fitness (log ratio) for C40A G42A C56G C72A A84C .
-4.52

I would be grateful if you could share the reported polymerase ribozyme fitness (log ratio) for C34A C40U G48C C114U G120C .
-3.6

I would be grateful if you could share the reported polymerase ribozyme fitness (log ratio) for U33A A46C G69U .
-0.918

I would be grateful if you could share the reported polymerase ribozyme fitness (log ratio) for C97A C124A .
-2.9

I would be grateful if you could share the reported polymerase ribozyme fitness (log ratio) for G69A C73A C82A G120A G128A .
-3.86

I would be grateful if you could share the reported polymerase ribozyme fitness (log ratio) for G60C U131A .
-1.69

I would be grateful if you could share the reported polymerase ribozyme fitness (log ratio) for A29G C49G G71A U125G .
-3.8

I would be grateful if you could share the reported polymerase ribozyme fitness (log ratio) for C72A C86A .
-0.267

I would be grateful if you could share the reported polymerase ribozyme fitness (log ratio) for U78A C80A C94G U133A .
-6.19

I would be grateful if you could share the reported polymerase ribozyme fitness (log ratio) for A26G G36A A108U C123G .
-5.15

I would be grateful if you could share the reported polymerase ribozyme fitness (log ratio) for A37U G69C C89U .
-2.29

I would be grateful if you could share the reported polymerase ribozyme fitness (log ratio) for C22A C40G G58C G60A .
-4.83

I would be grateful if you could share the reported polymerase ribozyme fitness (log ratio) for C11U U106G .
-1.1

I would be grateful if you could share the reported polymerase ribozyme fitness (log ratio) for C3U U14G A26U G60U C123A .
-4.1

I would be grateful if you could share the reported polymerase ribozyme fitness (log ratio) for C56G C80A .
-1.38

I would be grateful if you could share the reported polymerase ribozyme fitness (log ratio) for A95U C115A .
-1.22

I would be grateful if you could share the reported polymerase ribozyme fitness (log ratio) for U54G C86A U129G .
-0.985

I would be grateful if you could share the reported polymerase ribozyme fitness (log ratio) for C11U U78C .
-0.264

I would be grateful if you could share the reported polymerase ribozyme fitness (log ratio) for G10U A37U G120C U129C .
0.637

I would be grateful if you could share the reported polymerase ribozyme fitness (log ratio) for A2C G36A A50U G77A C123U .
-2.76

I would be grateful if you could share the reported polymerase ribozyme fitness (log ratio) for C53G C70G .
-2.85

I would be grateful if you could share the reported polymerase ribozyme fitness (log ratio) for G36A G45C C114A .
-3.75

I would be grateful if you could share the reported polymerase ribozyme fitness (log ratio) for G71C C89G U130C .
-4.18

I would be grateful if you could share the reported polymerase ribozyme fitness (log ratio) for G69C C115A .
-0.724

I would be grateful if you could share the reported polymerase ribozyme fitness (log ratio) for G44U G69A C76A G120C .
-6.09

I would be grateful if you could share the reported polymerase ribozyme fitness (log ratio) for C40U G51U C53U G61U G113U .
-6.53

I would be grateful if you could share the reported polymerase ribozyme fitness (log ratio) for C8U C49U G71C G117U G120A C124A .
-1.83

I would be grateful if you could share the reported polymerase ribozyme fitness (log ratio) for C62A U78C A121C .
0.55

I would be grateful if you could share the reported polymerase ribozyme fitness (log ratio) for C8U C12U C70G C94A .
-3.02

I would be grateful if you could share the reported polymerase ribozyme fitness (log ratio) for C12A G48U G71A .
-2.04

I would be grateful if you could share the reported polymerase ribozyme fitness (log ratio) for C12G C62U A68C U116C A121C U129A .
-6.48

I would be grateful if you could share the reported polymerase ribozyme fitness (log ratio) for A37G C98U .
-1.79

I would be grateful if you could share the reported polymerase ribozyme fitness (log ratio) for G35A A41C U54C C64A A84G C101U C123U .
-7.59

I would be grateful if you could share the reported polymerase ribozyme fitness (log ratio) for A46C C53U U54G G71U G120U .
-0.575

I would be grateful if you could share the reported polymerase ribozyme fitness (log ratio) for U54A C64U C72U C86A .
-0.948

I would be grateful if you could share the reported polymerase ribozyme fitness (log ratio) for C73G G120A U129G .
-1.1

I would be grateful if you could share the reported polymerase ribozyme fitness (log ratio) for C8A G60A .
-0.104

I would be grateful if you could share the reported polymerase ribozyme fitness (log ratio) for A50C G63C C97U .
-1.52

I would be grateful if you could share the reported polymerase ribozyme fitness (log ratio) for C20U U55G C56A .
-1.7

I would be grateful if you could share the reported polymerase ribozyme fitness (log ratio) for C12U C80G G128C U130C .
-4.44

I would be grateful if you could share the reported polymerase ribozyme fitness (log ratio) for G42C G44C U81C G120A .
-2.45

I would be grateful if you could share the reported polymerase ribozyme fitness (log ratio) for C72A G113U G120A U132A .
-2.87

I would be grateful if you could share the reported polymerase ribozyme fitness (log ratio) for A43U G47C U92C G93C A121G .
-0.371

I would be grateful if you could share the reported polymerase ribozyme fitness (log ratio) for C49A G113A .
-0.955

I would be grateful if you could share the reported polymerase ribozyme fitness (log ratio) for C76U G120A .
1.69

I would be grateful if you could share the reported polymerase ribozyme fitness (log ratio) for U7A U55A U116C .
-0.198

I would be grateful if you could share the reported polymerase ribozyme fitness (log ratio) for G93C U112G .
-0.938

I would be grateful if you could share the reported polymerase ribozyme fitness (log ratio) for A5G U9A G52U .
-1.25

I would be grateful if you could share the reported polymerase ribozyme fitness (log ratio) for C98U U129G .
-2.41

I would be grateful if you could share the reported polymerase ribozyme fitness (log ratio) for G17A G69C U112A .
-4.29
